experiment summary: Antioxidant activity assessed as ABTS radical scavenging activity after 6 mins by photometric analysis
Assay type: physicochemical
reported metric: pIC50
// field semantics: pIC50 = negative decimal log of concentration (mol/L)

A selection of reference data follows.
Cc1c(C)c2c(c(C)c1O)CCC(C)(C(=O)O)O2 (centres undefined) | 4.77
O=C1O[C@H]([C@@H](O)CO)C(O)=C1O | 4.74
CCCCOc1cc2oc(-c3ccccc3)cc(=O)c2c(O)c1O | 4.85
CC(C)=CCOc1cc2oc(-c3ccccc3)cc(=O)c2c(O)c1O | 4.73

Query: Sample `O=c1c(O)c(-c2ccc(O)c(O)c2)oc2cc(O)cc(O)c12` — what was its pIC50?
Reply: 5.14

Query: Sample `COc1cc2oc(-c3ccccc3)cc(=O)c2c(O)c1O` — what was its pIC50?
Reply: 4.69

Query: Sample `CC(C)=CCC/C(C)=C/CC/C(C)=C/COc1cc2oc(-c3ccccc3)cc(=O)c2c(O)c1O` — what was its pIC50?
Reply: 4.62

Query: Sample `O=c1cc(-c2ccccc2)oc2cc(O)c(O)c(O)c12` — what was its pIC50?
Reply: 4.81

Query: Sample `CC(C)=CCC/C(C)=C/COc1cc2oc(-c3ccccc3)cc(=O)c2c(O)c1O` — what was its pIC50?
Reply: 4.69

Source of measurements: ChEMBL document CHEMBL3751778
